Tested on: PC3 (p53−) (Prostate Adenocarcinoma)
Assay: Cell viability analysis, prostate cancer PC3
Type: cell-based, human
Conditions: Homo sapiens, 72 h, read-out: cell viability (survival rate), PC3, drug 10 μM, 72 hours, WST-1, OD450 nm
Counter-ions that a name gives are not always drawn.
So basically, if viability at 10 µM comes in under 50% it's 1, and if it's 50% or more it's -1.

{"columns": ["molecule", "group-label"],
 "data": [
  ["Nc1ccc(S(=O)(=O)Nc2nccs2)cc1 [Sulfathiazole]", -1],
  ["Nc1nc2c(ncn2COCCO)c(=O)[nH]1 [Acyclovir (Aciclovir), Acyclovir]", -1],
  ["CC1=C(C(=O)O)N2C(=O)[C@@H](NC(=O)[C@H](N)c3ccccc3)[C@H]2SC1 [Cephalexin (Cefalexin), Cephalexin]", -1],
  ["CN(C)[C@@H]1C(O)=C(C(N)=O)C(=O)[C@@]2(O)C(O)=C3C(=O)c4c(O)ccc(Cl)c4[C@@](C)(O)[C@H]3C[C@@H]12 [Chlortetracycline HCl]", 1],
  ["CC1(C)S[C@@H]2[C@H](NC(=O)Cc3ccccc3)C(=O)N2[C@H]1C(=O)O [Benzylpenicillin sodium]", 1],
  ["Nc1nc(=O)n([C@@H]2CS[C@H](CO)O2)cc1F [Emtricitabine (Emtriva), Emtricitabine]", -1]
]}

Enquiry: Say whether its viability at 10 µM is strictly beneath 50%. Entry: Cc1noc(NS(=O)(=O)c2ccc(N)cc2)c1C [Sulfisoxazole]
Return: 1
